The molecules below have reported MIC for S. aureus, Smith.

molecule	MIC
CN1CCCN(c2nc3c(cc2F)c(=O)c(C(=O)O)cn3C2CC2)CC1	0.39 µg/mL
CCn1cc(C(=O)O)c(=O)c2cc(F)c(N3CCNCC3)nc21 [Control Compound, reference compound]	0.78 µg/mL
CC1CN(c2nc3c(cc2F)c(=O)c(C(=O)O)cn3C2CC2)CCN1 (centres unmarked)	0.39 µg/mL
O=C(O)c1cn(C2CC2)c2nc(N3CCC(O)C3)c(F)cc2c1=O (centres unmarked)	≤ 0.05 µg/mL
CN1CCN(c2nc3c(cc2F)c(=O)c(C(=O)O)cn3C2CC2)CC1	0.2 µg/mL
NC1CCN(c2nc3c(cc2F)c(=O)c(C(=O)O)cn3C2CC2)C1 (centres unmarked)	0.1 µg/mL
O=C(O)c1cn(C2CC2)c2nc(N3CCNCC3)c(F)cc2c1=O	0.39 µg/mL
O=C(O)c1cn(C2CC2)c2nc(N3CCCNCC3)c(F)cc2c1=O	0.39 µg/mL

###

Consider the following MIC values measured on Ser. marcescens, 13001.

compound	uom	censoringOperator	MIC
O=C(O)c1cn(C2CC2)c2nc(N3CCC(O)C3)c(F)cc2c1=O (centres unmarked) [No. 3]	µg/mL	=	0.1
CN1CCCN(c2nc3c(cc2F)c(=O)c(C(=O)O)cn3C2CC2)CC1 [No. 6]	µg/mL	=	0.2
NC1CCN(c2nc3c(cc2F)c(=O)c(C(=O)O)cn3C2CC2)C1 (centres unmarked) [No. 2]	µg/mL	≤	0.05
CC1CN(c2nc3c(cc2F)c(=O)c(C(=O)O)cn3C2CC2)CCN1 (centres unmarked) [No. 7]	µg/mL	≤	0.05
O=C(O)c1cn(C2CC2)c2nc(N3CCCNCC3)c(F)cc2c1=O [No. 5]	µg/mL	=	0.1
O=C(O)c1cn(C2CC2)c2nc(N3CCNCC3)c(F)cc2c1=O [No. 1]	µg/mL	≤	0.05
CN1CCN(c2nc3c(cc2F)c(=O)c(C(=O)O)cn3C2CC2)CC1 [No. 4]	µg/mL	≤	0.05
CCn1cc(C(=O)O)c(=O)c2cc(F)c(N3CCNCC3)nc21 [Control Compound, reference compound]	µg/mL	=	0.2

###

- System: Str. faecalis, ATCC19433
- methodNotes: Antibacterial activity, dilution method in Muller-Hinton Bouillon (MIC)
- Format: cell-based
- studyConditions: Enterococcus faecalis, 10^6/ml bacteria, 37°C, 18 hours, read-out: Minimal Inhibitory Concentration (MIC)

molecule	testedSystem	uom	MIC
NC1CCN(c2nc3c(cc2F)c(=O)c(C(=O)O)cn3C2CC2)C1 (centres unmarked)	Str. faecalis, ATCC19433	mg/L	0.39
CN1CCCN(c2nc3c(cc2F)c(=O)c(C(=O)O)cn3C2CC2)CC1	Str. faecalis, ATCC19433	mg/L	6.25
O=C(O)c1cn(C2CC2)c2nc(N3CCNCC3)c(F)cc2c1=O	Str. faecalis, ATCC19433	mg/L	1.56
O=C(O)c1cn(C2CC2)c2nc(N3CCCNCC3)c(F)cc2c1=O	Str. faecalis, ATCC19433	mg/L	6.25
CN1CCN(c2nc3c(cc2F)c(=O)c(C(=O)O)cn3C2CC2)CC1	Str. faecalis, ATCC19433	mg/L	3.13
CCn1cc(C(=O)O)c(=O)c2cc(F)c(N3CCNCC3)nc21 [Control Compound, reference compound]	Str. faecalis, ATCC19433	mg/L	6.25
O=C(O)c1cn(C2CC2)c2nc(N3CCC(O)C3)c(F)cc2c1=O (centres unmarked)	Str. faecalis, ATCC19433	mg/L	0.39
CC1CN(c2nc3c(cc2F)c(=O)c(C(=O)O)cn3C2CC2)CCN1 (centres unmarked)	Str. faecalis, ATCC19433	mg/L	3.13

###

Below are MIC values recorded for Pr. mirabilis, 1287.
measureName: MIC (µg/mL)

molecule	measureName	censoringOperator	recordedValue
CN1CCN(c2nc3c(cc2F)c(=O)c(C(=O)O)cn3C2CC2)CC1 [No. 4]	MIC	≤	0.05
CC1CN(c2nc3c(cc2F)c(=O)c(C(=O)O)cn3C2CC2)CCN1 (centres unmarked) [No. 7]	MIC	=	0.1
CN1CCCN(c2nc3c(cc2F)c(=O)c(C(=O)O)cn3C2CC2)CC1 [No. 6]	MIC	=	0.2
O=C(O)c1cn(C2CC2)c2nc(N3CCNCC3)c(F)cc2c1=O [No. 1]	MIC	≤	0.05
CCn1cc(C(=O)O)c(=O)c2cc(F)c(N3CCNCC3)nc21 [Control Compound, reference compound]	MIC	=	0.2
O=C(O)c1cn(C2CC2)c2nc(N3CCC(O)C3)c(F)cc2c1=O (centres unmarked) [No. 3]	MIC	≤	0.05
O=C(O)c1cn(C2CC2)c2nc(N3CCCNCC3)c(F)cc2c1=O [No. 5]	MIC	=	0.1
NC1CCN(c2nc3c(cc2F)c(=O)c(C(=O)O)cn3C2CC2)C1 (centres unmarked) [No. 2]	MIC	≤	0.05
